Hi there, I'd appreciate the recorded shrunken log2 fold change for every entry that follows.
Tested on: Escherichia coli TOP10
assayNotes: shrunken log2 fold change of peptide-encoding DNA abundance (4.5 h post-induction vs induction); higher = less antimicrobial activity (less host growth inhibition)
statedConditions: time post-induction: 4.5 h; library: site-saturation at positions 5, 18, 19, 20
One number for each entry.

Use these answered entries as a reference point.
[[record]]
sequencedata = "RRIRARPPRLPRPRPRPKKYPRP"
measurementtarget = "Escherichia coli TOP10"
experimentalvalue = -0.232

[[record]]
sequencedata = "RRIRERPPRLPRPRPRPEHMPRP"
measurementtarget = "Escherichia coli TOP10"
experimentalvalue = -0.0272

[[record]]
sequencedata = "RRIRKRPPRLPRPRPRPIPDPRP"
measurementtarget = "Escherichia coli TOP10"
experimentalvalue = 0.2


Each of the following entries comes with a recorded value; kindly state shrunken log2 fold change for each.
1. RRIRVRPPRLPRPRPRPPPGPRP
2. RRIRTRPPRLPRPRPRPIARPRP
3. RRIRGRPPRLPRPRPRPHRQPRP

Return:
1.01
-0.00992
0.0397

---

Test system: Escherichia coli TOP10
assayNotes: shrunken log2 fold change of peptide-encoding DNA abundance (4.5 h post-induction vs induction); higher = less antimicrobial activity (less host growth inhibition)
statedConditions: time post-induction: 4.5 h; library: site-saturation at positions 5, 18, 19, 20
Given measured shrunken log2 fold change, output true if it is greater than or equal to -0.02 and false if not.

[[record]]
sequencedata = "RRIRNRPPRLPRPRPRPQPMPRP"
classname = "false"

[[record]]
sequencedata = "RRIRGRPPRLPRPRPRPQQWPRP"
classname = "true"

[[record]]
sequencedata = "RRIRVRPPRLPRPRPRPNCIPRP"
classname = "false"

[[record]]
sequencedata = "RRIRWRPPRLPRPRPRPSVGPRP"
classname = "true"

[[record]]
sequencedata = "RRIRCRPPRLPRPRPRPWHCPRP"
classname = "false"


Enquiry: // inclusive: shrunken log2 fold change at least -0.02? input: `RRIRFRPPRLPRPRPRPLCIPRP`
Return: false

Enquiry: // inclusive: shrunken log2 fold change at least -0.02? input: `RRIRNRPPRLPRPRPRPFVPPRP`
Return: false

Enquiry: // inclusive: shrunken log2 fold change at least -0.02? input: `RRIRKRPPRLPRPRPRPCGTPRP`
Return: true

---

Hi there, I'd appreciate the recorded shrunken log2 fold change for every entry that follows.
System: Escherichia coli TOP10
assayNotes: shrunken log2 fold change of peptide-encoding DNA abundance (4.5 h post-induction vs induction); higher = less antimicrobial activity (less host growth inhibition)
statedConditions: time post-induction: 4.5 h; library: site-saturation at positions 5, 18, 19, 20
Give bare numbers.

Each of the following entries comes with a recorded value; kindly state shrunken log2 fold change for each.
1. RRIRIRPPRLPRPRPRPCIYPRP
2. RRIRMRPPRLPRPRPRPHFTPRP

Return:
1. -0.0179
2. -0.173

---

Tested on: Escherichia coli TOP10;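 further: peptides expressed intracellularly from a pBAD plasmid library in pooled LB shake-flask culture, induced with 0.3% L-arabinose, DNA abundance read by NGS, three biological replicates, DESeq2 with apeglm shrinkage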
assayNotes: shrunken log2 fold change of peptide-encoding DNA abundance (4.5 h post-induction vs induction); higher = less antimicrobial activity (less host growth inhibition)
statedConditions: time post-induction: 4.5 h; library: site-saturation at positions 5, 18, 19, 20
Given measured shrunken log2 fold change, output MET if it is greater than or equal to -0.02 and NOT MET if not.

[[record]]
sequencedata = "RRIRTRPPRLPRPRPRPQCPPRP"
classname = "NOT MET"

[[record]]
sequencedata = "RRIRIRPPRLPRPRPRPIYRPRP"
classname = "NOT MET"

[[record]]
sequencedata = "RRIRTRPPRLPRPRPRPPYAPRP"
classname = "NOT MET"

[[record]]
sequencedata = "RRIRNRPPRLPRPRPRPMKVPRP"
classname = "MET"

[[record]]
sequencedata = "RRIRYRPPRLPRPRPRPMLSPRP"
classname = "MET"

[[record]]
sequencedata = "RRIRHRPPRLPRPRPRPSTPPRP"
classname = "NOT MET"

[[record]]
sequencedata = "RRIRTRPPRLPRPRPRPVVDPRP"
classname = "MET"

[[record]]
sequencedata = "RRIRRRPPRLPRPRPRPDVQPRP"
classname = "NOT MET"

[[record]]
sequencedata = "RRIRFRPPRLPRPRPRPGGIPRP"
classname = "MET"

[[record]]
sequencedata = "RRIRWRPPRLPRPRPRPMGKPRP"
classname = "MET"


Enquiry: // inclusive: shrunken log2 fold change at least -0.02? input: `RRIRCRPPRLPRPRPRPMWFPRP`
Return: NOT MET

Enquiry: // inclusive: shrunken log2 fold change at least -0.02? input: `RRIRPRPPRLPRPRPRPQGDPRP`
Return: MET

Enquiry: // inclusive: shrunken log2 fold change at least -0.02? input: `RRIRSRPPRLPRPRPRPHESPRP`
Return: NOT MET

Enquiry: // inclusive: shrunken log2 fold change at least -0.02? input: `RRIRERPPRLPRPRPRPMHSPRP`
Return: MET

Enquiry: // inclusive: shrunken log2 fold change at least -0.02? input: `RRIRLRPPRLPRPRPRPEVNPRP`
Return: MET
